Molecular target: T1, corticotropin-releasing hormone (CRH) peptide (human and mouse, UniProt P01143 145-185 (rat entry), not fully specified)
T1 peptide: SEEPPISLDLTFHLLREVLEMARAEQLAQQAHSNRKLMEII
Assay: cell-based or functional assay
value type: unlabelled nM value (Table 5 matrix; likely hCRHR1-Luc IC50 as in Tables 6-8) (nM)
Give the value in nM but do not write nM after it.

binder | result
PR302034 (antibody, human IgG1, kappa, V domains shown) VH: EVQLVESGGGLVQPGGSLRLSCAASGFTFSNYWMNWVRQAPGKGLEWVGEIRLKSNNYATHYAESVKGRFTISRDDSKNSLYLQMNSLKTEDTAVYYCTVGTLVYWGQGTLVTVSS VL: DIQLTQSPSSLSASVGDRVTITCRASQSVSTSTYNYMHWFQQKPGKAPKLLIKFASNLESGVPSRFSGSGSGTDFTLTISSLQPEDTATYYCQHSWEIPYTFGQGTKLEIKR | 6.87

// unlabelled nM value (Table 5 matrix; likely hCRHR1-Luc IC50 as in Tables 6-8) value for PR302038 (antibody, human IgG1, kappa, V domains shown) VH: EMQLVESGGGLVQPGGSLRLSCAASGFTFSNYWMNWVRQAPGKGLEWVAEIRLKSNNYATHYAESVKGRFTISRDDSKSSVYLQMNSLKTEDTAVYYCTVGTLVYWGQGTLVTVSS VL: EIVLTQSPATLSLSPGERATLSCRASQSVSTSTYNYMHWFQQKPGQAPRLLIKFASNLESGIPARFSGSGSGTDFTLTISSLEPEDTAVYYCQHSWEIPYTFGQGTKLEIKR : 3.34

// unlabelled nM value (Table 5 matrix; likely hCRHR1-Luc IC50 as in Tables 6-8) value for PR302066 (antibody, human IgG1, kappa, V domains shown) VH: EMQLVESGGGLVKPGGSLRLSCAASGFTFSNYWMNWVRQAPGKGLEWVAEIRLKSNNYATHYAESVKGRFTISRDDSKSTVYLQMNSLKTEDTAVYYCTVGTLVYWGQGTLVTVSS VL: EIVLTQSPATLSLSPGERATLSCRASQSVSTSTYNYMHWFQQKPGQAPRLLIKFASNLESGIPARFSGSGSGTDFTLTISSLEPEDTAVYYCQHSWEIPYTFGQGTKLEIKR : 2.49

// unlabelled nM value (Table 5 matrix; likely hCRHR1-Luc IC50 as in Tables 6-8) value for PR302029 (antibody, human IgG1, kappa, V domains shown) VH: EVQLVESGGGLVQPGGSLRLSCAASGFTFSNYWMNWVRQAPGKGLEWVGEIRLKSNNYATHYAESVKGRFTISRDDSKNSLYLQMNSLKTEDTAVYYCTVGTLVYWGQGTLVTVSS VL: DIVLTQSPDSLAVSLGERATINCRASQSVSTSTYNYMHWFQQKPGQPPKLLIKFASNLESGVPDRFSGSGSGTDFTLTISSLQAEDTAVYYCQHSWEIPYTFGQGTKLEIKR : 2.65

// unlabelled nM value (Table 5 matrix; likely hCRHR1-Luc IC50 as in Tables 6-8) value for PR302041 (antibody, human IgG1, kappa, V domains shown) VH: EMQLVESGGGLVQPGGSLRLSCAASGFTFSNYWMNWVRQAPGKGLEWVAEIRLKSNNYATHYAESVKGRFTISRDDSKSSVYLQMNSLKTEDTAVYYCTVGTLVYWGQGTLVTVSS VL: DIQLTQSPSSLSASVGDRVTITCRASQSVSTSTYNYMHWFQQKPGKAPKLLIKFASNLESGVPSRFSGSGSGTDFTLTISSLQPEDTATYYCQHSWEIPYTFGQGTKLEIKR : 2.54
